target-or-system: Estrogen receptor (Homo sapiens, UniProt Q92731+P03372)
assay-comment: Inhibition of 10e-9 M E2 stimulated MCF-7 breast cancer cell proliferation
Type: functional, cell-based
condition-set: cancer cell lines
Would you mind classing the entries by IC50? Ranges: low = under 100 nM, medium = from 100 nM up to 700 nM, high = 700 nM and over

{"query-smiles": "CCCCCSCCCCCCCCCC/C(=C(/CC)c1ccc(O)cc1)c1ccc(O)cc1", "group": "high"}
{"query-smiles": "CCCCCSCCCN(C)C(=O)CCCCC/C(=C(/CC)c1ccc(O)cc1)c1ccc(O)cc1", "group": "high"}
{"query-smiles": "CC/C(=C(/CCCCCCN(C)CCCSCCCC(F)(F)C(F)(F)F)c1ccc(O)cc1)c1ccc(O)cc1", "group": "low"}
{"query-smiles": "CCCCCS(=O)(=O)CCCCCCCCCC/C(=C(/CC)c1ccc(O)cc1)c1cccc(O)c1", "group": "medium"}
{"query-smiles": "CCCCCSCCCN(C)CCCCCC/C(=C(/CC)c1ccc(O)cc1)c1ccc(O)cc1", "group": "low"}
{"query-smiles": "CCCCCSCCCCCCCCCC/C(=C(/CC)c1cccc(O)c1)c1ccc(O)cc1", "group": "medium"}
{"query-smiles": "CCCCCSCCCCCCCCCC/C(=C(/CC)c1ccc(O)cc1)c1cccc(O)c1", "group": "high"}
{"query-smiles": "CCCCCS(=O)(=O)CCCCCCCCCCn1c(-c2ccc(O)cc2)c(C)c2cc(O)ccc21", "group": "low"}
{"query-smiles": "CCCCCS(=O)(=O)CCCCCCCCCC/C(=C(/CC)c1cccc(O)c1)c1ccc(O)cc1", "group": "medium"}

----------
target-or-system: Estrogen receptor (Homo sapiens, UniProt Q92731+P03372)
condition-set: Cancer cell lines, at 10 µM
Description: Inhibition of ER-MDA-MB 231 breast cancer cell proliferation over 96 hr at 10 uM
Catalogue of T/C values
endpoint-name: T/C (%)

{"compound": "CC/C(=C(/CCCCCCN(C)CCCSCCCC(F)(F)C(F)(F)F)c1ccc(O)cc1)c1ccc(O)cc1", "target-or-system": "Estrogen receptor (Homo sapiens, UniProt Q92731+P03372)", "readout-unit": "%", "readout-number": -15}
{"compound": "CCCCCS(=O)(=O)CCCCCCCCCCn1c(-c2ccc(O)cc2)c(C)c2cc(O)ccc21", "target-or-system": "Estrogen receptor (Homo sapiens, UniProt Q92731+P03372)", "readout-unit": "%", "readout-number": -2}
{"compound": "C[C@]12CC[C@@H]3c4ccc(O)cc4C[C@@H](CCCCCCCCC[S+]([O-])CCCC(F)(F)C(F)(F)F)[C@H]3[C@@H]1CC[C@@H]2O (some centres not stated)", "target-or-system": "Estrogen receptor (Homo sapiens, UniProt Q92731+P03372)", "readout-unit": "%", "readout-number": 95}
{"compound": "CCCCCS(=O)(=O)CCCCCCCCCC/C(=C(/CC)c1ccc(O)cc1)c1cccc(O)c1", "target-or-system": "Estrogen receptor (Homo sapiens, UniProt Q92731+P03372)", "readout-unit": "%", "readout-number": -7}
{"compound": "CCCCCSCCCN(C)CCCCCC/C(=C(/CC)c1ccc(O)cc1)c1ccc(O)cc1", "target-or-system": "Estrogen receptor (Homo sapiens, UniProt Q92731+P03372)", "readout-unit": "%", "readout-number": -25}
{"compound": "CCCCCS(=O)(=O)CCCCCCCCCC/C(=C(/CC)c1ccc(O)cc1)c1ccc(O)cc1", "target-or-system": "Estrogen receptor (Homo sapiens, UniProt Q92731+P03372)", "readout-unit": "%", "readout-number": -4}
{"compound": "CCCCCS(=O)(=O)CCCCCCCCCC/C(=C(/CC)c1cccc(O)c1)c1ccc(O)cc1", "target-or-system": "Estrogen receptor (Homo sapiens, UniProt Q92731+P03372)", "readout-unit": "%", "readout-number": 32}
